All figures here come from paper PMC11270734.

Catalogue of pIC50 readings, one per entry.
system: chloroquine-sensitive P. falciparum (3D7 strain); assay type: cell-based; settings: Plasmodium falciparum, 3D7, 48 h, read-out: MEAN IC50 ± SE
Here pIC50 is given on a logarithmic scale as minus log10 of the concentration in mol/L.

Consider the worked cases shown below.
* CCCCC1(C)OOC2(CCN(C(=O)c3ccccc3)CC2)OO1 [3j] | 7.76
* CCCC1(CCC)OOC2(CCN(C(=O)c3ccccc3)CC2)OO1 [3o] | 7.76
* CC(C)C1(C)OOC2(CCN(C(=O)c3ccccc3)CC2)OO1 [3h] | 7.38

Input: I'd like to know its pIC50. The compound in question is CC(C)CC1(C)OOC2(CCN(C(=O)c3ccccc3)CC2)OO1 [3k]
Output: 7.72

Input: Using the record for CCCCCC1(C)OOC2(CCN(C(=O)c3ccccc3)CC2)OO1 [3l] , report its pIC50.
Output: 7.78

Input: Recorded pIC50 of O=C(c1ccccc1)N1CCC2(CC1)OOC1(CCCCCC1)OO2 [3c] , please.
Output: 7.66

Input: What does the data say about its pIC50? Entry: O=Cc1ccc(C(=O)N2CCC3(CC2)OOC2(OO3)C3CC4CC(C3)CC2C4)cc1 [3u]
Output: 8.20

Input: Consider the compound shown here: CCC1(CC)OOC2(CCN(C(=O)c3ccccc3)CC2)OO1 [3m] What is its recorded pIC50?
Output: 7.76

Input: Which pIC50 reading was recorded for the compound CCCC1(C)OOC2(CCN(C(=O)c3ccccc3)CC2)OO1 [3g] ?
Output: 7.36

Input: Returns the measured pIC50 for the input compound. Input: CC1(c2ccc(C#N)cc2)OOC2(CCN(C(=O)c3ccccc3)CC2)OO1 [3r]
Output: 7.80

Input: Record request: pIC50 value, item CCC1(C)OOC2(CCN(C(=O)c3ccccc3)CC2)OO1 [3f]
Output: 7.37
